method_summary: Cellular toxicity in the HIV cell-line (MT-4)
Format: cell-based, human
test_context: human

compound | CC50
CCCC(CCC)COC(=O)[C@H](C)NP(=O)(OC[C@H]1O[C@@H](n2ccc(=O)[nH]c2=O)C2(CC2)[C@@H]1O)Oc1ccccc1 (stereo partly drawn) | 29 µM
C[C@H](NP(=O)(OC[C@H]1O[C@@H](n2ccc(=O)[nH]c2=O)C2(CC2)[C@@H]1O)Oc1ccccc1)C(=O)OCc1ccccc1 (stereo partly drawn) | > 98 µM
C[C@H](NP(=O)(OC[C@H]1O[C@@H](n2ccc(=O)[nH]c2=O)C2(CC2)[C@@H]1O)Oc1ccc(C(C)(C)C)cc1)C(=O)OCc1ccccc1 (stereo partly drawn) | > 32 µM
